- STUDY TARGET: T1, recombinant C-terminally truncated RSV (A2 strain) F protein (RSV (A2 strain), UniProt P03420 26-524)
- T1 construct: extracellular domain; also called truncated F protein; extracellular domain of the F protein from RSV A2
- T1 sequence (P03420 26-109, chain 1 of 2): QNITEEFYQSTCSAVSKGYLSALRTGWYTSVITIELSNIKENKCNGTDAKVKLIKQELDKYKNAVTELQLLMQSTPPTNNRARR
- T1 sequence (P03420 137-524, chain 2 of 2): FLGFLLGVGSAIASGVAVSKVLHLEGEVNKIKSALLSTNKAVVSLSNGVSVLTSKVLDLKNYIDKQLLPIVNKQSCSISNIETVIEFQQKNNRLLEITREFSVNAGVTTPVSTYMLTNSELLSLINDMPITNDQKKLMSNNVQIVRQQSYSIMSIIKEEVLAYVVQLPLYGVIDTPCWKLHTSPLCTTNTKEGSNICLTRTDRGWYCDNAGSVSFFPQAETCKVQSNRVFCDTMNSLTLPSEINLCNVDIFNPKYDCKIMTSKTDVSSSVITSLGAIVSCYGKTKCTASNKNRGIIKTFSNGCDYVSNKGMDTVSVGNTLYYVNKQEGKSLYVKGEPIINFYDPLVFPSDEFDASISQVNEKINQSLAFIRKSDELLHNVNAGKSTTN
- ASSAY INFO: SPR (BIAcore), IgG over immobilised F
Please enter True where kon is greater than or equal to 400000 M⁻¹ s⁻¹, and False where it is lower.

Inquiry: Hello, I need to know if A13c4 IgG (antibody, V domains shown) VH: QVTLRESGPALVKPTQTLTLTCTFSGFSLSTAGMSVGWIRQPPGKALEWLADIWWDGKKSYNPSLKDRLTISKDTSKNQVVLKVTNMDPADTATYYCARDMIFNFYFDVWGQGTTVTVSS VL: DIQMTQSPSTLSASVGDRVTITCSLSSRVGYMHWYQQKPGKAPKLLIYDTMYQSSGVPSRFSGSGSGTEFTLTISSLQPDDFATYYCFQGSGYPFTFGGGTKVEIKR has measured kon not below 400000 M⁻¹ s⁻¹. Thanks!
Reply text: False

Inquiry: Dear colleague, could you confirm whether A1e9 IgG (antibody, V domains shown, also called Ale9) VH: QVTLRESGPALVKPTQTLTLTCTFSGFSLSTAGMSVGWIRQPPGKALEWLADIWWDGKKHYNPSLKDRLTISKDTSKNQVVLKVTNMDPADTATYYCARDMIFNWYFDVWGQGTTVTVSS VL: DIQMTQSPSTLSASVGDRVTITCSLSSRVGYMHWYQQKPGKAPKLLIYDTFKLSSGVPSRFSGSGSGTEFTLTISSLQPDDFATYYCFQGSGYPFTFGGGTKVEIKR has kon at or above 400000 M⁻¹ s⁻¹?
Reply text: True

Inquiry: Decide: kon of AFFF(1) IgG (antibody, V domains shown) VH: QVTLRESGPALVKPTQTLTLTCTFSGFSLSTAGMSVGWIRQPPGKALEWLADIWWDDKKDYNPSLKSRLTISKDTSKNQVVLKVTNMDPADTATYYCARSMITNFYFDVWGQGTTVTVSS VL: DIQMTQSPSTLSASVGDRVTITCSASSSVGYMHWYQQKPGKAPKLLIYDTFKLASGVPSRFSGSGSGTEFTLTISSLQPDDFATYYCFQGSFYPFTFGGGTKVEIKR >= 400000 M⁻¹ s⁻¹?
Reply text: False

Inquiry: Item A17d4(1) IgG (antibody, V domains shown) VH: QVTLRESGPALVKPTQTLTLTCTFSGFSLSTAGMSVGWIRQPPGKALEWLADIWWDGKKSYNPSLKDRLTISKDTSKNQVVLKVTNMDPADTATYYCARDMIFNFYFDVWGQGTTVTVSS VL: DIQMTQSPSTLSASVGDRVTITCLPSSRVGYMHWYQQKPGKAPKLLIYDTMYQSSGVPSRFSGSGSGTEFTLTISSLQPDDFATYYCFQGSGYPFTFGGGTKVEIKR with kon of 400000 M⁻¹ s⁻¹ or above?
Reply text: True
